biological target: Gastrin receptor (gastric glands) (Cavia porcellus, UniProt H0VZC5); construct: The washed guinea pig gastric glands prepared as above were resuspended; from tissue; host or cells: guinea pig gastric mucosal glands (male Hartley); assay: Gastrin Receptor Binding in Guinea Pig Gastric Glands; set-up: species or system guinea pig (male Hartley); details: IC50 ^125 I-Gastrin Gastric Glands, 25° C., 30 minutes
Sequence (H0VZC5 1-426): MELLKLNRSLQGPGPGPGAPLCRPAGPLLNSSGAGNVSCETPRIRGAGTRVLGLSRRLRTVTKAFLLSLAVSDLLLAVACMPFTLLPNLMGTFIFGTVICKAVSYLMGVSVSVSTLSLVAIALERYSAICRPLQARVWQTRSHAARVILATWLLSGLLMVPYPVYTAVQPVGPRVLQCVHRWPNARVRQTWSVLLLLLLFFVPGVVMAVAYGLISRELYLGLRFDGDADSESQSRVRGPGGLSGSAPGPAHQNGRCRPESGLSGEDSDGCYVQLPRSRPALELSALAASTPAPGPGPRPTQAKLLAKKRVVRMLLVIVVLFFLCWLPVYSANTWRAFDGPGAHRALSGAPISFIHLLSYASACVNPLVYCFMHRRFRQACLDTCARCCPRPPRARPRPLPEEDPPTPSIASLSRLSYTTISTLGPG
measure: IC50

Item: O=C(NC1N=C(c2ccccc2F)c2ccccc2NC1=O)c1ccccc1 (racemic) | IC50: 28 µM

Item: O=C(Nc1ccc(Cl)cc1)NC1N=C(c2ccccc2F)c2ccccc2NC1=O (racemic) | IC50: 0.26 µM

Item: O=C(NC1N=C(c2ccccc2)c2ccccc2NC1=O)c1cccc(SC(F)(F)F)c1 (racemic) | IC50: 128 µM

Item: O=C(NCC1CNc2ccccc2C(c2ccccc2F)=N1)OCc1ccccc1 (racemic) | IC50: 86 µM

Item: O=C(NC1N=C(c2ccccc2F)c2ccccc2NC1=O)c1ccc(Cl)cc1 (racemic) | IC50: 8.4 µM

Item: COc1cccc(NC(=O)NC2N=C(c3ccccc3)c3ccccc3NC2=O)c1 (centres unmarked) | IC50: 0.12 µM

Item: CN1C(=O)[C@@H](NC(=O)C(C)(C)C)N=C(c2ccccc2)c2ccccc21 | IC50: 13 µM

Item: CN1C(=O)C(N(C)C(=O)c2ccccc2Cl)N=C(c2ccccc2)c2ccccc21 (racemic) | IC50: > 100 µM

Item: CC(C)C(=O)N[C@H]1N=C(c2ccccc2)c2ccccc2N(C)C1=O | IC50: 73 µM

Item: O=C(NC1N=C(c2ccccc2)c2ccccc2NC1=O)c1cccc(Cl)c1 (racemic) | IC50: 4.3 µM

Item: O=C(NC1N=C(c2ccccc2F)c2ccccc2NC1=O)c1cc2cc(F)ccc2[nH]1 (racemic) | IC50: 4.8 µM

Item: CN1C(=O)C(NC(=O)NC2CCCCC2)N=C(c2ccccc2)c2ccccc21 (centres unmarked) | IC50: 0.39 µM

Item: CCCCCc1ccc(C(=O)NC2N=C(c3ccccc3)c3ccccc3NC2=O)cc1 (racemic) | IC50: > 100 µM

Item: NCCCC[C@H]1N=C(c2ccccc2F)c2ccccc2NC1=O | IC50: > 1000 µM

Item: O=C(NC1N=C(c2ccccc2F)c2ccccc2NC1=S)c1cc2ccccc2[nH]1 (racemic) | IC50: 4.4 µM

Item: COc1ccc(NC(=O)NC2N=C(c3ccccc3)c3ccccc3N(C)C2=O)cc1 (centres unmarked) | IC50: 0.045 µM

Item: O=C(NC1N=C(c2ccccc2F)c2ccccc2NC1=S)c1ccc(Cl)cc1 (racemic) | IC50: 11 µM

###

target: CCK receptor (pancreas) (Rattus norvegicus); construct: The whole pancreas was dissected free of fat tissue and was homogenized; from tissue; host or cells: rat pancreas membranes (Sprague-Dawley); experiment: CCK Receptor Binding (Pancreas): inhibition of ^125 I-CCK-33 binding; set-up: species or system Male Sprague-Dawley rats; details: IC50 ^125 I-CCK Pancreas, rat pancreas membranes, ^125 I-CCK-33, 37° C., 30 minutes
Sequence (P30551 whole entry): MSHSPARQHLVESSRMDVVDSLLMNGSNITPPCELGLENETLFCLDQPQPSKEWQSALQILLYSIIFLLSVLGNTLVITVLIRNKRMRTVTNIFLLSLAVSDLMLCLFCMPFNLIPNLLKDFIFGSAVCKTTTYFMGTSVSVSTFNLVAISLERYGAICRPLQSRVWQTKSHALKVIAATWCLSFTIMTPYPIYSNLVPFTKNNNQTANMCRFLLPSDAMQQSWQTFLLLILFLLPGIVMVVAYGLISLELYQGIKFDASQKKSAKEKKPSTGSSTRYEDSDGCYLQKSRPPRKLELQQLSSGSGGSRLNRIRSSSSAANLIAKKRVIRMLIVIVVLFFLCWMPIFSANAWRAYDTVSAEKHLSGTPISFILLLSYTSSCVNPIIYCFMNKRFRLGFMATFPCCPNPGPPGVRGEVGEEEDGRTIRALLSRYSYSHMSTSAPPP
Give measured IC50 for each item. Keep answers brief.
Write the answer as a number in nM, unit excluded.

Item: CN1C(=O)C(Cc2cn(C)c3ccccc23)N=C(c2ccccc2)c2ccccc21 (centres unmarked) | IC50: 100

Item: N#Cc1ccc(C(=O)NC2N=C(c3ccccc3)c3ccccc3NC2=O)cc1 (racemic) | IC50: 730

Item: O=C(CNc1ccccc1)NC1N=C(c2ccccc2F)c2ccccc2NC1=O (racemic) | IC50: 900

Item: CC(C)(C)OC(=O)N[C@H](Cc1c[nH]c2ccccc12)C(=O)NC1N=C(c2ccccc2)c2ccccc2NC1=O (mixture of isomers) | IC50: 17000

Item: CCOC(=O)CCN1C(=O)C(NC(=O)OCc2ccccc2)N=C(c2ccccc2)c2ccccc21 (centres unmarked) | IC50: 1200

Item: CCN1C(=O)[C@@H](Cc2c[nH]c3ccccc23)N=C(c2ccccc2F)c2ccccc21 | IC50: 300

Item: CN1C(=O)/C(=C\c2ccsc2)N=C(c2ccccc2)c2ccccc21 | IC50: 25000

Item: C[C@@H](NC(=O)NC1N=C(c2ccccc2)c2ccccc2N(C)C1=O)c1ccccc1 (some centres unmarked) | IC50: 430
